# ASSAY_DETAILS: chemical genetic growth profiling, strain panel (AID 1159580);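 note: tested at 20 µM; growth read once vehicle control cultures reached saturation at 30 °C; 1 = growth at the plate median or of vehicle wells; lower values mean less growth of the strain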
# CONDITION_NOTES: S. cerevisiae deletion strains, growth OD, locus YPR141C, strain kar3, stronger effect = lower value
Screen size: about 5,500 compounds; about 2,000 (36%) were called active. Inconclusive results (about 18%) are left out. This is one part of the list.
Below, each of the compounds is paired with its reported normalized growth value.

STRUCTURE_SMILES: Fc1ccc(C(c2ccc(F)cc2)N2CCN(C/C=C/c3ccccc3)CC2)cc1
normalized growth: 0.999

STRUCTURE_SMILES: COP(=S)(OC)SCn1nnc2ccccc2c1=O
normalized growth: 0.969

STRUCTURE_SMILES: O=c1ccc2cc(O[C@@H]3O[C@H](CO)[C@@H](O)[C@H](O)[C@H]3O)c(O)cc2o1
normalized growth: 0.996

STRUCTURE_SMILES: O=C(O)c1cc2cc(Cl)ccc2[nH]1
normalized growth: 0.976

STRUCTURE_SMILES: CC(C)=CCOc1cc2oc(=O)ccc2cc1O
normalized growth: 0.974

STRUCTURE_SMILES: COc1ccc2[nH]cc(CCNC(C)=O)c2c1
normalized growth: 1.03

---

# ASSAY_DETAILS: chemical genetic growth profiling, strain panel (AID 1159580)
# CONDITION_NOTES: S. cerevisiae deletion strains, growth OD, locus YLR058C, strain SHM2, stronger effect = lower value
About 2,000 (36%) of roughly 5,500 compounds were called active. Roughly 18% stayed inconclusive and do not appear here. This is one part of the list.
ENDPOINT: normalized growth

COMPOUND: CN1CCN(C(c2ccccc2)c2ccccc2)CC1
OBSERVED_VALUE: 0.999

COMPOUND: COc1c2occc2cc2ccc(=O)oc12
OBSERVED_VALUE: 0.988

COMPOUND: CCCCC/C=C\C/C=C\C/C=C\C/C=C\CCCC(=O)O
OBSERVED_VALUE: 0.972

COMPOUND: COP(=S)(OC)SCn1nnc2ccccc2c1=O
OBSERVED_VALUE: 0.971

COMPOUND: C[C@]12CCC3C(CC[C@H]4CC(=O)CC[C@]34C)C1CCC2=O (stereo partly drawn)
OBSERVED_VALUE: 0.958

COMPOUND: NCCS
OBSERVED_VALUE: 1.02

COMPOUND: CCS(=O)(=O)CCn1c([N+](=O)[O-])cnc1C
OBSERVED_VALUE: 1.01

COMPOUND: COC(=O)C[C@H]1C(C)(C)[C@@H](OC(C)=O)[C@@H]2CC3C4CC(=O)O[C@@H](c5ccoc5)[C@]4(C)CCC3[C@@]1(C)C2=O (stereo partly drawn)
OBSERVED_VALUE: 1.02

COMPOUND: Fc1ccc(C(c2ccc(F)cc2)N2CCN(C/C=C/c3ccccc3)CC2)cc1
OBSERVED_VALUE: 0.981

COMPOUND: Nc1ncnc2c1ncn2[C@@H]1O[C@H](CO)[C@@H](O)[C@@H]1O
OBSERVED_VALUE: 1.01

COMPOUND: CC(=O)OCC(=O)[C@@]1(O)CCC2C3CCC4=CC(=O)CC[C@]4(C)[C@@]3(F)[C@@H](O)C[C@@]21C (stereo partly drawn)
OBSERVED_VALUE: 1.01

COMPOUND: O=C(O)c1cc2cc(Cl)ccc2[nH]1
OBSERVED_VALUE: 1.01

COMPOUND: COC(=O)C1=CO[C@@H](O[C@@H]2O[C@H](CO)[C@@H](O)[C@H](O)[C@H]2O)[C@@H]2[C@@H](C)[C@@H](O)C[C@H]12
OBSERVED_VALUE: 1.01

---

# ASSAY_DETAILS: chemical genetic growth profiling, strain panel (AID 1159580);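 note: tested at 20 µM; growth read once vehicle control cultures reached saturation at 30 °C; 1 = growth at the plate median or of vehicle wells; lower values mean less growth of the strain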
# CONDITION_NOTES: S. cerevisiae deletion strains, growth OD, locus YFL029C, strain CAK1, stronger effect = lower value
Out of some 5,500 compounds screened, about 2,000 (36%) were called active. Not shown: some 18% with an inconclusive outcome. Some of the results follow.

COMPOUND: N#C/C(=C\C=C\c1ccccc1)c1nc2ccccc2[nH]1
normalized growth: 0.958
//
COMPOUND: O=C(Nc1ccc(OC(F)(F)F)cc1)Nc1cncc(C(F)(F)F)c1
normalized growth: 0.991
//
COMPOUND: COc1ccc(/C(C#N)=C2C=C/C(=N/O)C(Cl)=C\2)cc1
normalized growth: 0.965
//
COMPOUND: C(=NC(N=Cc1ccccc1)c1ccccc1)c1ccccc1 (configuration not stated)
normalized growth: 0.981
//
COMPOUND: N#C/C(=N/Nc1ccc(Cl)cc1)C(N)=S
normalized growth: 0.467
//
COMPOUND: N#Cc1c(N)sc2c1CCc1ccccc1-2
normalized growth: 0.891
//
COMPOUND: Fc1ccc(Nc2nc(-c3ccc(F)c(F)c3)cs2)c(F)c1
normalized growth: 0.0895
//
COMPOUND: Cc1c(NCN2C(=O)CCC2=O)cc2c(c1[N+](=O)[O-])C(C)(C)CC2(C)C
normalized growth: 0.95
//
COMPOUND: N#CC(C#N)=NNc1cc(C(F)(F)F)ccc1OCC(F)(F)F
normalized growth: 0.921
//
COMPOUND: CC1CCc2c(sc3ncnc(Sc4ccccc4)c23)C1 (configuration not stated)
normalized growth: 0.987
//
COMPOUND: CC(C)(C)c1cc(C(=O)/C(C#N)=N\Nc2ccc(Cl)cc2)no1
normalized growth: 0.95
//
COMPOUND: O=S(=O)(Nc1cc(-c2cccs2)nn1-c1ccc(I)cc1)c1cccc(F)c1
normalized growth: 0.953
//
COMPOUND: N#CC(C#N)=NNc1ccc(-n2ccc(C(F)(F)F)n2)cc1
normalized growth: 0.853
//
COMPOUND: N#C/C(=C\c1ccc(C(F)(F)F)cc1)c1ccc(O)cc1
normalized growth: 0.978
//
COMPOUND: N#C/C(=N/Nc1ccc(C(F)(F)F)cc1)C(=O)C1CC1
normalized growth: 0.945
//
COMPOUND: O=C(NCc1ccc(F)c(Cl)c1)Nc1csc([N+](=O)[O-])c1
normalized growth: 0.967
//
COMPOUND: CSc1nc(Sc2n[nH]c(-c3ccccc3)n2)cc(Sc2n[nH]c(-c3ccccc3)n2)n1
normalized growth: 1.02

---

# ASSAY_DETAILS: chemical genetic growth profiling, strain panel (AID 1159580);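 note: tested at 20 µM; growth read once vehicle control cultures reached saturation at 30 °C; 1 = growth at the plate median or of vehicle wells; lower values mean less growth of the strain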
# CONDITION_NOTES: S. cerevisiae deletion strains, growth OD, locus YEL037C, strain rad23, stronger effect = lower value
Hit rate of the full screen: of about 5,500 compounds, about 2,000 (36%) were called active. Inconclusive results (about 18%) are left out. The list shows a part of the results.
Threshold 1: normalized growth strictly smaller gives y, otherwise n.

STRUCTURE_SMILES: Fc1ccc(C(c2ccc(F)cc2)N2CCN(C/C=C/c3ccccc3)CC2)cc1
LABEL: y
--
STRUCTURE_SMILES: O=C1c2ccc(O)c(O)c2C(=O)c2c(O)ccc(O)c21
LABEL: y
--
STRUCTURE_SMILES: CC(C)=CCOc1c2occc2cc2ccc(=O)oc12
LABEL: y
--
STRUCTURE_SMILES: O=C1c2ccccc2C(=O)c2c1ccc(O)c2O
LABEL: y
--
STRUCTURE_SMILES: CN1CCN(CCCN2c3ccccc3Sc3ccc(Cl)cc32)CC1
LABEL: y
--
STRUCTURE_SMILES: c1ccc2c(c1)[nH]c1cnccc12
LABEL: n

---

Below, each of the molecules is paired with its reported normalized growth value.
# ASSAY_DETAILS: chemical genetic growth profiling, strain panel (AID 1159580);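 note: tested at 20 µM; growth read once vehicle control cultures reached saturation at 30 °C; 1 = growth at the plate median or of vehicle wells; lower values mean less growth of the strain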
# CONDITION_NOTES: S. cerevisiae deletion strains, growth OD, locus YAL013W, strain DEP1, stronger effect = lower value
Among all 5,500 compounds or so, about 2,000 (36%) were called active. Another 18% or so got no clear call; they are omitted. Some of the results follow.

MOLECULE: COc1c2occc2cc2ccc(=O)oc12
normalized growth: 0.992
//
MOLECULE: CSCCC(NC=O)C(=O)NC(CC(C)C)C(=O)NC(Cc1ccccc1)C(=O)O (centres undefined)
normalized growth: 1.01
//
MOLECULE: Cc1cc(O)c2c(c1O)C(=O)c1c(O)cc(C)c(O)c1C2=O
normalized growth: 0.982
//
MOLECULE: CC(C)(C)c1cc(C(C)(C)C)n(-c2ccc(N=Cc3cc(Br)cc(Br)c3O)cc2)n1
normalized growth: 0.157
//
MOLECULE: O=[N+]([O-])/N=C1/NCCN1Cc1ccc(Cl)cc1
normalized growth: 0.994
//
MOLECULE: Cc1cccc(N(C)C(=S)Oc2ccc3ccccc3c2)c1
normalized growth: 0.968
//
MOLECULE: Cc1ccc(/C(C#N)=C2C=C/C(=N/O)C(Cl)=C\2Cl)cc1
normalized growth: 0.953
//
MOLECULE: O=C(CCCN1CC=C(n2c(=O)[nH]c3ccccc32)CC1)c1ccc(F)cc1
normalized growth: 0.99
//
MOLECULE: CCS(=O)(=O)CCn1c([N+](=O)[O-])cnc1C
normalized growth: 1.03
//
MOLECULE: Nc1ncnc2c1ncn2[C@@H]1O[C@H](CO)[C@@H](O)[C@@H]1O
normalized growth: 1.01
//
MOLECULE: COC(=O)c1ccccc1-n1cccc1C(=O)OC
normalized growth: 0.981
//
MOLECULE: CC(C)=CCOc1c2occc2cc2ccc(=O)oc12
normalized growth: 0.734
//
MOLECULE: CN=C(N)NCCC[C@H](N)C(=O)O
normalized growth: 1.02
//
MOLECULE: COc1cc(Cl)c(Cl)cc1Cl
normalized growth: 0.991
//
MOLECULE: Cc1cc(C)nc(NS(=O)(=O)c2ccc(N)cc2)n1
normalized growth: 0.998
//
MOLECULE: O=c1[nH]c2ccccc2n1CCCN1CCC(n2c(=O)[nH]c3cc(Cl)ccc32)CC1
normalized growth: 0.982
//
MOLECULE: CC(C)=CCC1=C(O)c2ccccc2C(=O)C1=O
normalized growth: 0.949
//
MOLECULE: NNC(=S)Nc1ccc(C(F)(F)F)cc1
normalized growth: 0.918
//
MOLECULE: CC(C)(C)c1cc(C(C)(C)C)n(-c2ccc([N+](=O)[O-])cc2)n1
normalized growth: 1.02
